These measurements were taken from patent US20060140858A1.

test: Pretargeting: 125-I-hMN-14 × 734 bsAb, 24 h later 99m-Tc-IMP-192, biodistribution; type: in vivo, Nude mice; settings: female, NCRNU nude, mouse, total radioactivity; Tumor, 3 h post peptide
Where a SMILES comes first, the peptide text is derived from it. Side-chain parts run from the residue outwards. The star is where a group is joined. DTPA = O=C(O)CN(CCN(CC(=O)O)CC(=O)O)CCN(CC(=O)O)CC(=O)*; X1 = NC(=S)NN=CC(=O)*
ENDPOINT_NAME: tissue uptake at 3 h (%ID/g)

[[record]]
compound = "CC(=O)N[C@@H](CCCCNC(=O)CN(CCN(CCN(CC(=O)O)CC(=O)O)CC(=O)O)CC(=O)O)C(=O)N[C@@H](Cc1ccc(O)cc1)C(=O)N[C@@H](CCCCNC(=O)CN(CCN(CCN(CC(=O)O)CC(=O)O)CC(=O)O)CC(=O)O)C(=O)N[C@@H](CCCCNC(=O)[C@H](CS)NC(=O)C=NNC(N)=S)C(N)=O [IMP 192] (Ac-K(DTPA)YK(DTPA)K([Cys-X1])-NH2)"
endpoint_name = "tissue uptake at 3 h"
result = 12.6

